target: UniProt P49798; assay: FCPIA: Gαo binding to RGS4
Sequence (P49798 whole entry, looked up): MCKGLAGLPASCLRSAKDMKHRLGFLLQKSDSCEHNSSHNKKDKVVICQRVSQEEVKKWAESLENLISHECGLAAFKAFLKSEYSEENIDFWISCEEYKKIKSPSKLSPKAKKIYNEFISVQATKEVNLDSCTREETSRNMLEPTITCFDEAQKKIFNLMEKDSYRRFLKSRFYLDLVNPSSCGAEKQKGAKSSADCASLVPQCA
MEASUREMENT TYPE: Fold Selectivity (RGS8 IC50/ RGS4 IC50)

INSERT INTO measurements (item_smiles, target_under_test, obs_value) VALUES
  ('CCCCn1sc(=O)n(CC(C)C)c1=O', 'UniProt P49798', 2513),
  ('O=c1sn(-c2ccc(Cl)cc2)c(=O)n1Cc1ccc(F)cc1', 'UniProt P49798', 543),
  ('Cc1ccc(-n2sc(=O)n(Cc3ccccc3)c2=O)cc1', 'UniProt P49798', 536),
  ('Cc1cccc(-n2sc(=O)n(Cc3ccccc3)c2=O)c1', 'UniProt P49798', 561);

----------
tested on: RGS4; test: FCPIA: Gαo binding to RGS4; conditions: Table 3
MEASUREMENT TYPE: RGS4 Hill Slope

INSERT INTO results (item_smiles, measurement_type, obs_value) VALUES
  ('Cc1ccc(-n2sc(=O)n(Cc3ccc(Cl)c(Cl)c3)c2=O)cc1', 'RGS4 Hill Slope', '−1.43'),
  ('Cc1ccc(Cn2c(=O)sn(-c3ccccc3)c2=O)cc1', 'RGS4 Hill Slope', '−1.50'),
  ('COc1ccc(Cn2c(=O)sn(-c3ccccc3)c2=O)cc1', 'RGS4 Hill Slope', '−1.78'),
  ('Cc1ccc(Cn2sc(=O)n(Cc3ccc(Cl)cc3)c2=O)cc1', 'RGS4 Hill Slope', '−1.23'),
  ('Cc1ccc(-n2sc(=O)n(Cc3ccc(C(C)(C)C)cc3)c2=O)cc1', 'RGS4 Hill Slope', '−1.36');

----------
Listed compounds paired with reported IC50
Molecular target: RGS8 (Homo sapiens (Human))
Sequence (P57771 other isoform, or with tags, fused parts or gaps): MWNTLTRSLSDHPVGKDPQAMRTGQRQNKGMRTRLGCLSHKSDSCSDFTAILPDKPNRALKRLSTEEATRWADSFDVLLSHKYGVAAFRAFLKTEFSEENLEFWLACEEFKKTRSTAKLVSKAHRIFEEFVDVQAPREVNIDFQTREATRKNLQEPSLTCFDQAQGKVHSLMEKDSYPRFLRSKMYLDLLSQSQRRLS
Test: FCPIA: Gαo binding to RGS8
Conditions: Table 3, duplex FCPIA, average of two experiments; read-out: RGS8 IC50
From the text: FCPIA Dose Response and Reversibility Experiments:
MEASUREMENT TYPE: IC50

INSERT INTO measurements (compound, measurement_type, obs_value) VALUES
  ('CC(C)Cn1c(=O)sn(C(C)(C)C)c1=O [CCG-203763]', 'IC50', '194 µM'),
  ('CCCCn1c(=O)sn(C(C)(C)C)c1=O [CCG-203768]', 'IC50', '119 µM'),
  ('Cc1cccc(-n2sc(=O)n(Cc3ccccc3)c2=O)c1 [CCG-203785]', 'IC50', '21.3 µM'),
  ('O=c1sn(-c2ccccc2)c(=O)n1Cc1cccc(Cl)c1 [S14]', 'IC50', '9.4 µM'),
  ('O=c1sn(-c2ccc(Cl)cc2)c(=O)n1Cc1ccccc1 [CCG-203723]', 'IC50', '5.2 µM'),
  ('CCCCn1sc(=O)n(Cc2ccc(F)cc2)c1=O [CCG-203765]', 'IC50', '31.6 µM'),
  ('CC(C)(C)c1ccc(Cn2c(=O)sn(-c3ccccc3)c2=O)cc1 [S35]', 'IC50', '> 100 µM'),
  ('O=c1sn(-c2ccc(Cl)c(Cl)c2)c(=O)n1Cc1ccc(F)cc1 [CCG-203728]', 'IC50', '17.2 µM'),
  ('COc1ccc(Cn2c(=O)sn(-c3ccccc3)c2=O)cc1 [S24]', 'IC50', '7.2 µM'),
  ('Cc1ccc(Cn2sc(=O)n(Cc3ccc(Cl)c(Cl)c3)c2=O)cc1 [S33]', 'IC50', '109 µM'),
  ('COc1ccc(Cn2c(=O)sn(-c3ccc(OC)cc3)c2=O)cc1 [S26]', 'IC50', '17.6 µM'),
  ('COc1ccc(Cn2c(=O)sn(Cc3ccc(C)cc3)c2=O)cc1 [S28]', 'IC50', '92.9 µM'),
  ('COc1ccc(-n2sc(=O)n(Cc3ccc(Cl)c(Cl)c3)c2=O)cc1 [S31]', 'IC50', '5.9 µM'),
  ('Cc1ccc(Cn2sc(=O)n(Cc3ccc(C)cc3)c2=O)cc1 [S13]', 'IC50', '94.7 µM'),
  ('COc1ccc(-n2sc(=O)n(Cc3ccccc3)c2=O)cc1 [CCG-203746]', 'IC50', '12.3 µM'),
  ('COc1ccc(-n2sc(=O)n(Cc3ccc(Cl)cc3)c2=O)cc1 [S6]', 'IC50', '40.2 µM'),
  ('CCCCn1sc(=O)n(CCCC)c1=O [CCG-203770]', 'IC50', '122 µM'),
  ('CC(C)(C)c1ccc(-n2sc(=O)n(Cc3ccccc3)c2=O)cc1 [S3]', 'IC50', '17.4 µM'),
  ('Cc1ccc(Cn2c(=O)sn(-c3ccc(C)cc3)c2=O)cc1 [CCG-203736]', 'IC50', '11.6 µM'),
  ('Cc1ccc(Cn2sc(=O)n(Cc3ccccc3)c2=O)cc1 [CCG-203734]', 'IC50', '20.4 µM'),
  ('O=c1sn(-c2ccccc2)c(=O)n1Cc1ccc(Cl)c(Cl)c1 [S29]', 'IC50', '7.5 µM');

Hey, just so you know, these numbers are from patent US8865750B2.
